Sequence of the target: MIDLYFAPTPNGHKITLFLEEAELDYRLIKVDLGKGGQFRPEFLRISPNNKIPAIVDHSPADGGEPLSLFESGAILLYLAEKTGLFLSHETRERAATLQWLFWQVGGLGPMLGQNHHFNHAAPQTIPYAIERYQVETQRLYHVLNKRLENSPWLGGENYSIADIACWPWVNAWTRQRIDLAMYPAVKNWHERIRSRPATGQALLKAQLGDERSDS
assay-readout: Kd (µM)
Numbers only; they are read as µM.

Request: Requested field: Kd. Item: N[C@@H](CCC(=O)N[C@@H](CS(=O)(=O)O)C(=O)NCC(=O)O)C(=O)O [GSO3^−]
Result: 23

Source listed as paper PMC2996727.
